method.description: Solubility in 0.3 M acetate buffer at pH 5 relative to naltrexone
Assay type: physicochemical
The molecules listed here are annotated with their Ratio.

Completed entries (count: 3):
smiles: COCCOCCOCCC(=O)Oc1ccc2c3c1O[C@H]1C(=O)CC[C@@]4(O)[C@@H](C2)N(CC2CC2)CC[C@]314
Ratio: 2.81
//
smiles: O=C(NCCOCCOCCO)Oc1ccc2c3c1O[C@H]1C(=O)CC[C@@]4(O)[C@@H](C2)N(CC2CC2)CC[C@]314
Ratio: 3.06
//
smiles: O=C(CCOCCOCCO)Oc1ccc2c3c1O[C@H]1C(=O)CC[C@@]4(O)[C@@H](C2)N(CC2CC2)CC[C@]314
Ratio: 1.86

# input So what's the measured Ratio for this one? `COCCOCCOCCNC(=O)Oc1ccc2c3c1O[C@H]1C(=O)CC[C@@]4(O)[C@@H](C2)N(CC2CC2)CC[C@]314`
# output 2.35
